Numbers sourced from the RNAGym collection of RNA variant scans (doi:10.1093/nar/gkz1192).

So I've got a bunch of variants here, and I need their self-cleavage values.
B1: CPEB3 Ribozyme (parent)
chain: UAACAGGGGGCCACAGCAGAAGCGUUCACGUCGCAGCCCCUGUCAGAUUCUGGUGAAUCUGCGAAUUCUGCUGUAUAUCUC

# Variants of: B1
# Experimental Protocol: self-cleavage, relative activity (ratio to wild type); higher = more cleavage; in vitro, sequencing
Please give only the number in your answer, with no unit.

Please report self-cleavage for the following variant: G16C A21U
0.1

Please report self-cleavage for the following variant: A13G A28U
0.54

Please report self-cleavage for the following variant: A47G A65U
0.49

Please report self-cleavage for the following variant: U54A G61A
0.73

Please report self-cleavage for the following variant: G9A A15G
0.3

Please report self-cleavage for the following variant: C12U U48C
1.18

Please report self-cleavage for the following variant: A20U C23U
0.4

Please report self-cleavage for the following variant: G6C C71A
0.21

Please report self-cleavage for the following variant: A13G C17U
0.51

Please report self-cleavage for the following variant: G10A C71G
0.12

Please report self-cleavage for the following variant: C27U U76A
0.28

Please report self-cleavage for the following variant: G36U U80A
0.29

Please report self-cleavage for the following variant: G22C U41A
0.29

Please report self-cleavage for the following variant: C68G U74A
0.43

Please report self-cleavage for the following variant: A21G U41C
0.66
